tested on: SUDHL-1 lymphoma cells; assay: Cellular assay, 3 day cell viability (WST-1); assay type: cell-based; details: 3 days, WST-1; read-out: SUDHL-1 IC50
experimentalEndpoint: IC50 (nM)
The answer is to be given in nM; state only the numeric part.

Bench note, SUDHL-1 lymphoma cells: entry "C[C@@H](Cc1c(F)c(F)cc(F)c1F)Nc1cc[nH]c(=O)c1-c1nc2cc3c(cc2[nH]1)CN(CCN(C)C)C3=O" , its IC50 = 22

---

assay: Rat pharmacokinetics / bioavailability; type: in vivo; details: male, Sprague-Dawley, plasma, iv, 10 mg/kg I.V.
experimentalEndpoint: MRT (h)
The answer is to be given in h; state only the numeric part.

molecule	valueUnit	assayResult
C[C@@H](Cc1c(F)c(F)cc(F)c1F)Nc1cc[nH]c(=O)c1-c1nc2cc3c(cc2[nH]1)CN(CCN(C)C)C3=O	h	22.7

molecule CC(Oc1cc(-c2cnn(C3CCNCC3)c2)cnc1N)c1c(Cl)ccc(F)c1Cl (racemic) [PF2341066, crizotinib, reference compound] , MRT observed: 1.88
